# EXPERIMENTAL_PROTOCOL: Solvent solubility screen
# Assay type: physicochemical
# CONDITION_DETAILS: n-hexane, 40 °C, organic solvent or mixture, thermodynamic from solid; read-out: Approximate Solubility
MEASURED_PARAMETER: solubility

Req: May I ask what solubility has been recorded for COC(=O)c1ccc2c(c1)NC(=O)/C2=C(\Nc1ccc(N(C)C(=O)CN2CCN(C)CC2)cc1)c1ccccc1 ?
Resp: < 10000 µg/mL
